- TEST_TARGET: T1, human CCR8 (human, UniProt P51685 1-355)
- T1 construct: Native CCR8 on human PBMC (CCR8+ CD3+ or CCR8+ CD4+ lymphocytes); also called chemokine (C-C motif) receptor 8
- T1 sequence (P51685 whole entry): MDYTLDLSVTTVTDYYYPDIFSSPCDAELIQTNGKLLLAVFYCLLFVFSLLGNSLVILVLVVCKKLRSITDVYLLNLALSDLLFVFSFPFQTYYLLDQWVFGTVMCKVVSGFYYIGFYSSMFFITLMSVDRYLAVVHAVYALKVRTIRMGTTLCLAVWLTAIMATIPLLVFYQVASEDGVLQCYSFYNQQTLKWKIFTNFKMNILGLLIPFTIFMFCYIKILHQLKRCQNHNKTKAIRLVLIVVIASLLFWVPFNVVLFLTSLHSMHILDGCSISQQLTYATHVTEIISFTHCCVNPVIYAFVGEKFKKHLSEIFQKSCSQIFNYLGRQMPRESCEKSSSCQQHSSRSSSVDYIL
- PROTOCOL_SUMMARY: flow blocking, PBMC CCR8+CD4+; competitor PE-AB4
- Protocol: For blocking studies, 100 μL of the cell suspension were incubated with 10 μg purified isotype control, AB1, AB2, AB3, AB4, AB5, AB8, AB9, AB10, AB11, AB12, AB13, AB14, AB15, and Commercial ABI antibodies, or isotype control, as blocking agents. […]
% Positive cells values for the binders below.
State the answer as a number, implicitly in %.

Guide cases for % Positive cells, answers given:
| BINDER | VALUE_UNIT | % Positive cells |
| --- | --- | --- |
| AB14 (antibody, V domains shown, Hybridoma monoclonal; Same VH/VL entries as AB15; also called antibody 14; clone 14) VH: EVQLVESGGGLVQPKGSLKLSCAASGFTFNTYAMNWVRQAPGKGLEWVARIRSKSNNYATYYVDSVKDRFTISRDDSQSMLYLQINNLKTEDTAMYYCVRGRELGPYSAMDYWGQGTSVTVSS VL: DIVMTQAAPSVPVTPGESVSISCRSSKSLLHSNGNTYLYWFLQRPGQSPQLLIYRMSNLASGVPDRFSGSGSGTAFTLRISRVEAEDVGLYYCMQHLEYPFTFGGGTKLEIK | % | 1.96 |
| AB15 (antibody, V domains shown, Hybridoma monoclonal; Same VH/VL entries as AB14; also called antibody 15; clone 15) VH: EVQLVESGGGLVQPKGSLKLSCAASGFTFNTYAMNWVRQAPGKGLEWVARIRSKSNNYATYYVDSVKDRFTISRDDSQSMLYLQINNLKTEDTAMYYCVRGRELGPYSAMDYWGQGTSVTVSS VL: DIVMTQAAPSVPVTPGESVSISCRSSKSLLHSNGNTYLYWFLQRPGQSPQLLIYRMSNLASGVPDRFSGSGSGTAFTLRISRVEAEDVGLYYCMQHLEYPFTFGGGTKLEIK | % | 1.81 |
| AB2 (antibody, V domains shown, Hybridoma monoclonal; Same VH/VL entries as AB1; also called antibody 2; clone 2) VH: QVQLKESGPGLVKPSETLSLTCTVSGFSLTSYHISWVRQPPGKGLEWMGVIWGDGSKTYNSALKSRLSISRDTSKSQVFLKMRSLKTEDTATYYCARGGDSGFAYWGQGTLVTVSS VL: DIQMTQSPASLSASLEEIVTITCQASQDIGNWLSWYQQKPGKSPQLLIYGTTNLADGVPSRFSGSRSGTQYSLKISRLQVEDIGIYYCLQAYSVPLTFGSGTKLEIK | % | 0.06 |
| AB11 (antibody, V domains shown, Hybridoma monoclonal; also called antibody 11; clone 11) VH: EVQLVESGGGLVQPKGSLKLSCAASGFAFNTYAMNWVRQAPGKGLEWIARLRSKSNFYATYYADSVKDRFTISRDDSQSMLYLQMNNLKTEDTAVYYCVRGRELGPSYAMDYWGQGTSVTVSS VL: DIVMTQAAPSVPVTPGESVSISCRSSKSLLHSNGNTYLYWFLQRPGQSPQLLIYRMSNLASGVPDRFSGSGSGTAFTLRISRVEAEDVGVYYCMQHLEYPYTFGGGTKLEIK | % | 2.26 |
| AB8 (antibody, V domains shown, Hybridoma monoclonal; also called antibody 8; clone 8) VH: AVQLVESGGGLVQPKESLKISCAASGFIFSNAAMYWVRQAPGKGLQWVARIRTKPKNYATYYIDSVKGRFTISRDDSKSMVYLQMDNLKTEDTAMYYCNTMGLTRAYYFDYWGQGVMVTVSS VL: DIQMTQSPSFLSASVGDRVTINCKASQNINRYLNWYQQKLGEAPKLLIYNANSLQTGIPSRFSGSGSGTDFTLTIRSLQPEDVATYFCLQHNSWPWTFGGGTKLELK | % | 2.13 |

I'd like to know its % Positive cells. The binder in question is AB10 (antibody, V domains shown, Hybridoma monoclonal; also called antibody 10; clone 10) VH: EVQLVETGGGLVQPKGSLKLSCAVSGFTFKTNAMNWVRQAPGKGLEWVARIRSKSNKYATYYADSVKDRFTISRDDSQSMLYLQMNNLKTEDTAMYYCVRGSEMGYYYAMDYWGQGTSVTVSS VL: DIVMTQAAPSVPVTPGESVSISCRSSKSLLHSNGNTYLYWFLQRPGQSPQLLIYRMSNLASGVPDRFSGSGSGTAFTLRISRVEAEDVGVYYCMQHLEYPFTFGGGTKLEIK
2.47

Param item: AB12 (antibody, V domains shown, Hybridoma monoclonal; also called antibody 12; clone 12) VH: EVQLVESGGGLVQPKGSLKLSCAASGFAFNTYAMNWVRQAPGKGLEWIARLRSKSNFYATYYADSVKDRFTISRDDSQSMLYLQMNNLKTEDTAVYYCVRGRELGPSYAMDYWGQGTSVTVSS VL: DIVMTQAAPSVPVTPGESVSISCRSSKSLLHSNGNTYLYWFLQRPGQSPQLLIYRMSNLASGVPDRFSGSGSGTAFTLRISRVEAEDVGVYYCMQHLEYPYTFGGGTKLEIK
2.37

Ok, now AB1 (antibody, V domains shown, Hybridoma monoclonal (mouse or rat); Same VH/VL entries as AB2; also called antibody 1; clone 1) VH: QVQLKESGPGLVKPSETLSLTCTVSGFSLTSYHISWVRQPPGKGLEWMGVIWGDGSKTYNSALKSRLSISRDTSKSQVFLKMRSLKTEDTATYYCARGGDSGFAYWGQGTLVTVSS VL: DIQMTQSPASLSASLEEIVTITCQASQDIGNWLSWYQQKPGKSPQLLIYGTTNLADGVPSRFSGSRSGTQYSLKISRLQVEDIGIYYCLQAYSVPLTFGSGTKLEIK
0.07

Again, but for AB3 (antibody, V domains shown, Hybridoma monoclonal; also called antibody 3; clone 3) VH: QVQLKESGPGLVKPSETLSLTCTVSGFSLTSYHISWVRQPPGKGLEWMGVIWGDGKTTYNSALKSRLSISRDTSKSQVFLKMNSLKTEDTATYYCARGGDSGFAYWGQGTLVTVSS VL: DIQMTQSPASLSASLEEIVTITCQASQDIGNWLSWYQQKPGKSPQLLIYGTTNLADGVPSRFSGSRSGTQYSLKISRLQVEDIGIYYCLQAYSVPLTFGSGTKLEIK
0.12

Quick one: AB4 (antibody, V domains shown, Hybridoma monoclonal; also called antibody 4; clone 4) VH: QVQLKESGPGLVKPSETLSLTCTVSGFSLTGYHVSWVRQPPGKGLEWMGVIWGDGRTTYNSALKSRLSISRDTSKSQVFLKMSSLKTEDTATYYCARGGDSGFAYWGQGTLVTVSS VL: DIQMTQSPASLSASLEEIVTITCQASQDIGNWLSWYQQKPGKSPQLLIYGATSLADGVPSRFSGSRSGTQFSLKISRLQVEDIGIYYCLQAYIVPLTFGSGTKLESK
0.09

What would you report for AB5 (antibody, V domains shown, Hybridoma monoclonal; Same VH/VL entries as AB6; also called antibody 5; clone 5) VH: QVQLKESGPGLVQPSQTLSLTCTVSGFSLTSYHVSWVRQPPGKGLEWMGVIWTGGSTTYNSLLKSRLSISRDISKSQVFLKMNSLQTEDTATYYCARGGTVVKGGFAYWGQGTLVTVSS VL: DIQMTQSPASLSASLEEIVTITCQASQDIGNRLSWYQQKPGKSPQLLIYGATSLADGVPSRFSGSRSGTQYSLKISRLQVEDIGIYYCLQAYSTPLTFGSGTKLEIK ?
0.12
